measurement description: GSK_TCAKS: pIC50 HepG2 human cell line viability assay using luminiscence. […] Seeding density was checked to ensure that new mono-layers were not more than 50% confluent at the time of harvesting. Cell suspension was added to 500 mL of the same medium at a final density of 1.2 * 10^5 cells/mL. This cell suspension was dispensed (25 uL, 3000 cells per well) into 384-well clear-bottom plates using a Multidrop Combi dispenser. Prior to addition of the cell suspension, the screening compounds (250 nL) were pre-dispensed into the plates with an Echo liquid handler. Plates were incubated for 48 h at 37C, 5% CO2. After incubation, plates equilibrated at room temperature for 30 min before proceeding to develop the luminescent signal. The signal developer, CellTiter-Glo Reagent, was allowed to equilibrate at room temperature for 30 min and added to the plates (25uL per well) using a Multidrop Combi dispenser. Plates were left for 10 min at room temperature for stabilization and then read using a ViewLux.
Format: toxicity, cell-based
Kindly supply the reported IC50 at 48 h values for the records listed here.

Examples with answers:
[
  {
    "molecule": "Cc1cc(N(C)C)nc(Nc2ccccc2C)n1",
    "IC50 at 48 h": "63.1 µM"
  },
  {
    "molecule": "COc1cccc(CCNC(=O)C(c2cn[nH]c2)N2CCN(c3ccc(Cl)cc3)CC2)c1 (stereo not drawn)",
    "IC50 at 48 h": "50.1 µM"
  },
  {
    "molecule": "CCCc1cc(N)nc(-c2cc(CCC)cc(N)n2)c1",
    "IC50 at 48 h": "31.6 µM"
  }
]

For the 5 molecules below, give their IC50 at 48 h values.
1. CC1CCCN(S(=O)(=O)c2ccc(C(=O)Nc3nc(-c4ccccn4)cs3)cc2)C1 (stereo not drawn)
2. [O-][s+]1nc(NCCCN(Cc2ccc(F)cc2)c2ccccn2)c(NCc2ccncc2)n1 (stereo not drawn)
3. O=C(NCCc1csc(-c2ccc(F)cc2)n1)c1ccco1
4. CCCCNc1nccc(-c2c(-c3ccc(F)cc3)nn3c(N4CCOCC4)cccc23)n1
5. O=C(Nc1nccs1)c1ccccc1Cn1cc([N+](=O)[O-])cn1

Reply:
1. 39.8 µM
2. 79.4 µM
3. > 100 µM
4. > 100 µM
5. > 100 µM

* * *

Test system: Trypanosoma cruzi
measurement description: GSK_TCAKS: pIC50 Trypanosoma cruzi Imaging: Infected Cells. […] Cells were then washed once with PBS before infection. T. cruzi trypomastigotes, collected at days 5 to 8 after infection from LLC-MK2 parasite infected cultures, were allowed to swim out for 4h at 37C from a centrifuged pellet (2,500 rpm/10 min/room temperature). Trypomastigotes were then collected and counted in a CASY Cell Counter. Trypomastigotes, in supplemented DMEM, were added to H9c2 cultures in a multiplicity of infection of 1 and incubated for 18 h. Cells were washed once with PBS before incubation of the infected H9c2 monolayer with trypsin (Life-Technologies) to detach cells from the flask. Cells were counted in a CASY Cell Counter using a 150 um capillary and their density set at 5 * 10^4 cells per mL in supplemented assay DMEM. Infected H9c2 were dispensed into 384-well poly-lysine coated assay plates at 50uL per well using a Multidrop Combi dispenser. After seeding them, the plates were incubated at 37C, 5% CO2 for 72h. Cultures were then fixed and stained by addition of 50 uL of a solution containing 8% formaldehyde and 4 uM DRAQ5 DNA dye (BioStatus, UK) per well. […] Five images were collected per well for reliable statistical analysis. Automated image analysis was performed with a script developed on Acapella High Content Imaging and Analysis Software (PerkinElmer). Output: percentage of infected cells per well as a second infection marker.
Format: functional, organism-based, Rattus norvegicus
experimental conditions: H9c2, 4 h
pIC50: −log10 of the molar value.
metric name: pIC50

Provide pIC50 for all items below, preserving their order.
1. Cc1[nH]nc(Nc2ccnc3[nH]ccc23)c1C
2. CCOc1ccc(OCC(=O)N2c3ccccc3CC2C(=O)NC)cc1 (stereo not drawn)
3. CCOc1ccc(NC(=O)c2ccc(NC(=O)NC3CCCCC3)cc2)cc1

Reply:
1: < 4.30; 2: < 4.30; 3: < 4.30

* * *

Could you please report measured pIC50 for the items listed next?
Test system: Leishmania donovani
measurement description: GSK_TCAKS: pIC50 Leishmania donovani Imaging: Amastigotes/Macrophages. Assay plates (384-well) were prepared by adding 250nL of compound to each well. For single shot assay, the final compound concentration was 5 uM. […] Automated image analysis was performed with a script developed on Acapella High Content Imaging and Analysis Software (PerkinElmer). Output: Average number of amastigotes per macrophage cell were reported for each well.
Format: functional, organism-based, Homo sapiens
experimental conditions: THP-1
One number for each entry, as −log10 of the molar value.

Here are 2 compounds together with their reported answers.
[
  {
    "compound structure string": "O=C(c1cccc(Nc2ncc(-c3ccc4c(c3)OCO4)cn2)c1)N1CCOCC1",
    "reported value": 5.80
  },
  {
    "compound structure string": "Cc1cc(NC(=O)CC2CCCCC2)n(-c2nc3c(c(=O)[nH]2)CCC3)n1",
    "reported value": 5.80
  }
]

Could I get pIC50 for every one of these entries?
1. Cc1cc2nc(N3CC[C@H]3C(N)=O)nc(Nc3cc(C4CC4)[nH]n3)c2s1
2. Cc1cccc(Nc2nc(-c3ccccn3)cs2)n1

Reply:
1: 5.90; 2: 5.70

* * *

Record form. Attribute: IC50 at 48 h. Fill in for each entry.
measurement description: GSK_TCAKS: pIC50 HepG2 human cell line viability assay using luminiscence. […] Seeding density was checked to ensure that new mono-layers were not more than 50% confluent at the time of harvesting. Cell suspension was added to 500 mL of the same medium at a final density of 1.2 * 10^5 cells/mL. This cell suspension was dispensed (25 uL, 3000 cells per well) into 384-well clear-bottom plates using a Multidrop Combi dispenser. Prior to addition of the cell suspension, the screening compounds (250 nL) were pre-dispensed into the plates with an Echo liquid handler. Plates were incubated for 48 h at 37C, 5% CO2. After incubation, plates equilibrated at room temperature for 30 min before proceeding to develop the luminescent signal. The signal developer, CellTiter-Glo Reagent, was allowed to equilibrate at room temperature for 30 min and added to the plates (25uL per well) using a Multidrop Combi dispenser. Plates were left for 10 min at room temperature for stabilization and then read using a ViewLux.
Format: toxicity, cell-based

[
  {
    "compound": "Cc1noc(C)c1COc1cccc(C(=O)N=c2[nH]cccc2C)c1",
    "reported value": "> 100 µM"
  },
  {
    "compound": "O=C(COc1nn(-c2ccccc2)c2ncccc12)NCc1ccccc1",
    "reported value": "> 100 µM"
  }
]

Input COc1ccc(C2=NCC(CSc3nnc(-c4ccc5c(c4)OCO5)o3)S2)cc1 (stereo not drawn) . Output IC50 at 48 h: > 100 µM

* * *

Assign log10 IC50 to each entry below.
System: Leishmania donovani
measurement description: GSK_TCAKS: pIC50 Leishmania donovani Imaging: Amastigotes/Macrophages. Assay plates (384-well) were prepared by adding 250nL of compound to each well. For single shot assay, the final compound concentration was 5 uM. […] Automated image analysis was performed with a script developed on Acapella High Content Imaging and Analysis Software (PerkinElmer). Output: Average number of amastigotes per macrophage cell were reported for each well.
Assay type: functional, organism-based, Homo sapiens
experimental conditions: THP-1
The base-10 logarithm of IC50, taken with IC50 in µM, is what appears here.

[
  {
    "molecule": "Nc1nc(-c2ccccn2)nc(-n2nc(-c3ccccc3)cc2N)n1",
    "metric name": "log10 IC50",
    "reported value": -0.10
  },
  {
    "molecule": "C[C@@H](Oc1cc(-n2cnc3ccc(O[C@H]4CCNC4)cc32)sc1C(N)=O)c1ccccc1Cl",
    "metric name": "log10 IC50",
    "reported value": 0.70
  },
  {
    "molecule": "CCNc1cc(-c2ccccn2)nc(Nc2ccccc2)n1",
    "metric name": "log10 IC50",
    "reported value": -0.20
  },
  {
    "molecule": "COc1cc(Nc2nccc(Nc3onc(C)c3C)n2)cc(S(=O)(=O)C2CCOCC2)c1",
    "metric name": "log10 IC50",
    "reported value": 0.70
  },
  {
    "molecule": "CC(=O)Nc1nc(-c2cc(C)ccc2C)c(C)s1",
    "metric name": "log10 IC50",
    "reported value": 1.50
  },
  {
    "molecule": "O=C1CN(C(=O)c2cccc(Nc3ncc(-c4ccc5c(c4)OCO5)cn3)c2)CCN1",
    "metric name": "log10 IC50",
    "reported value": 0.30
  },
  {
    "molecule": "N#Cc1ccccc1S(=O)(=O)N1CCN(C(=O)CNC(=O)c2ccc3c(c2)OCO3)CC1",
    "metric name": "log10 IC50",
    "reported value": 0.20
  },
  {
    "molecule": "c1ccc(-c2nc(NC3CCCC3)c3ccccc3n2)nc1",
    "metric name": "log10 IC50",
    "reported value": 0.10
  }
]

Quick one: give me log10 IC50 for each item below, same order please.
1. CCC(=O)Nc1ccc(C(=O)Nc2ccccc2-c2ccccc2)cc1
2. COc1ccc(Nc2nc(-c3ccccn3)cc(N3CCCC(O)C3)n2)cc1 (stereo not given)
3. CC1CN(Cc2ccc(C#N)cc2)CCN1c1ccc(NC(=O)c2ccccc2F)cc1 (stereo not given)
4. COCCn1c(-c2ccccc2)cnc1NCc1ccccc1OC

Reply:
1: 1.40; 2: -0.10; 3: 0.70; 4: 0.80

Your task in this section: give log10 IC50 for each listed record.
1. N#CN1CC[C@@H](NC(=O)Nc2ccccc2Oc2ccccc2)C1
2. O=C(Nc1nc(-c2ccc(S(=O)(=O)N3CCOCC3)cc2)cs1)c1ccc([N+](=O)[O-])cc1
3. O=c1ccc2ccc(F)c3c2n1C[C@H]3CN1CCC(NCc2cc3ccccc3o2)CC1
4. CCc1c(C)nc(-n2nc(C)cc2NC(=O)COc2ccccc2F)[nH]c1=O
5. CC(=Cc1ccccc1)CN1CCC(=O)N(Cc2cccnc2)CC1
6. COc1ccc(Nc2nc(-c3ccccn3)cs2)c(OC)c1
7. Cc1ccc(C)c(OC2CCN(C(=O)C(C)n3ccnc3)CC2)c1 (stereo not given)

Reply:
0.60
0.40
1.10
0.70
1.50
0.30
-0.50

Please give log10 IC50, item by item, for the list that follows.
1. COc1ncc(-c2ccc3nccc(-c4ccncc4)c3c2)cc1NS(C)(=O)=O
2. CN1C(=O)c2ccccc2Sc2ccc(NC(=O)NCc3ccco3)cc21
3. Cc1nnc(-c2nc(NCc3ccc(Cl)cc3)c3cccnc3c2O)[nH]1
4. CC(C)(C)Nc1nc(-c2ccccn2)nc2ccccc12

Reply:
[-0.20, 1.40, -0.30, 0.10]
